- experimental_system: T1, Human BCMA (human, UniProt Q02223 1-54, limits assumed)
- T1 construct: also called huBCMA; B-cell maturation antigen
- T1 sequence (looked up): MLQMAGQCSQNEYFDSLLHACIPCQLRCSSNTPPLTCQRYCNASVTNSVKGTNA
- assay_overview: SPR, IgG immobilised, human BCMA analyte
- Protocol: All experiments were performed on a Bio-Rad Proteon XPR36 surface Plasmon resonance biosensor (Bio-Rad, Hercules, Calif.). […] The analysis temperature for the immobilization was 25° C. and the running buffer was HBS-T+(10 mM HEPES, 150 mM NaCl, 0.05% Tween-20, pH 7.4). […] The analysis temperature for the BCMA binding analysis was 37° C. or 25° C. in a running buffer of HBS-T+, supplemented with 1 mg/mL BSA. […] Immediately after the 50 nM BCMA injection, dissociation was monitored for 2 hours. […]
assay_readout: kon (M⁻¹ s⁻¹)
Answer in M⁻¹ s⁻¹, number only, no unit symbol.

The cases that follow already have their kon on record.
[[record]]
binder = "A02_Rd4_6nM_C16 (antibody, V domains shown, IgG; also called P5AC16) VH: EVQLLESGGGLVQPGGSLRLSCAASGFTFSSYAMNWVRQAPGKGLEWVSAISDFGGSTYYADSVKGRFTISRDNSKNTLYLQMNSLRAEDTAVYYCARYWPMDIWGQGTLVTVSS VL: EIVLTQSPGTLSLSPGERATLSCRASQSVSDLYLAWYQQKPGQAPRLLMYDASIRATGIPDRFSGSGSGTDFTLTISRLEPEDFAVYYCQQYQTWPLTFGQGTKVEIK"
measurement = "1.56e+06"

[[record]]
binder = "COMBO_Rd4_6nM_C12 (antibody, V domains shown, IgG) VH: EVQLLESGGGLVQPGGSLRLSCAASGFTFSSYPMSWVRQAPGKGLEWVSAALGSGGSTYYADSVKGRFTISRDNSKNTLYLQMNSLRAEDTAVYYCARYWPMDSWGQGTLVTVS VL: EIVLTQSPGTLSLSPGERATLSCRASQSVSASYLAWYQQKPGQAPRLLMYDASIRATGIPDRFSGSGSGTDFTLTISRLEPEDFAVYYCQQYMSWPLTFGQGTKVEIK"
measurement = "1.38e+07"


Exercise: Tell me the measured kon of COMBO_Rd4_6nM_C11 (antibody, V domains shown, IgG) VH: EVQLLESGGGLVQPGGSLRLSCAASGFTFSSYPMSWVRQAPGKGLEWVSAIGGSGGSLGYADSVKGRFTISRDNSKNTLYLQMNSLRAEDTAVYYCARYWPMDSWGQGTLVTVSS VL: EIVLTQSPGTLSLSPGERATLSCRASQSVSPLYLAWYQQKPGQAPRLLMYDASIRATGIPDRFSGSGSGTDFTLTISRLEPEDFAVYYCQQYKAWPLTFGQGTKVEIK , please.
Solution: 6.74e+06
